# Tested on: Staphylococcus aureus
# assay.protocol: Antibacterial activity against methicillin-resistant Staphylococcus aureus 20106-2 clinical isolate after 20 to 24 hrs by two-fold microdilution method
# Type: functional
readout: MIC (µg/mL)
Give bare numbers, in µg/mL.

Field: example entries. Status: answers known.
sample_smiles=CN(C)CCCCCOC(=O)c1c2c(n3cc(Br)ccc13)C(=O)c1ncccc1C2=O readout_number=1
sample_smiles=CN1CCN(CCCCCCOC(=O)c2c3c(n4cc(Br)ccc24)C(=O)c2ncccc2C3=O)CC1 readout_number=0.25
sample_smiles=O=C1c2cccnc2C(=O)c2c1c(C(=O)OCCCCCN1CCOCC1)c1ccc(Br)cn21 readout_number=0.125
sample_smiles=O=C1c2cccnc2C(=O)c2c1c(C(=O)OCCCCCCN1CCCCC1)c1ccc(Br)cn21 readout_number=0.063

-- ask Data request, read-out MIC, for O=C1c2cccnc2C(=O)c2c1c(C(=O)OCCCCN1CCOCC1)c1ccc(Br)cn21
-- reply 0.5

The values you see were collected from ChEMBL document CHEMBL4004803.
